system: Fibroblast; test: Incucyte cell viability with human fibroblast; format: toxicity, cell-based; settings: 24 h, 10 µM, compound concentration 10 uM, replicate number 1; note: unitless GR value; below 1 slowed growth and below 0 cell loss
Reported Growth Rate values for the following compounds.

| compound | Growth Rate |
| --- | --- |
| CCC[C@@H]1CNCc2c1[nH]c(=O)c(C#N)c2N1CCC2(CC1)CC2.Cl | 0.62 |
| CC(C)(O)c1ccc(N2Cc3c(ccnc3-c3ccc(F)cc3OCC(F)(F)F)C2=O)cc1 | 0.68 |
| FC(F)(F)Oc1ccc(Oc2ccnc(N3CCC(NC(=S)Nc4cccnc4)CC3)c2Cl)c(Cl)c1 | 0.38 |
| CN(C)Cc1ccc(S(=O)(=O)n2ccc(/C=C/C(=O)NO)c2)cc1.Cl | 0.79 |
| COc1cc2c(NC3CCN(C)CC3)cc(-c3ccc(C)o3)nc2cc1OCCCN1CCCC1 | 0.13 |
| CCN(c1cc(C#CCN2CCOCC2)cc(C(=O)NCc2c(C)cc(C)[nH]c2=O)c1C)[C@H]1CC[C@H](N(C)CCOC)CC1 | 1 |
| CC(C)c1cc(C(=O)N2Cc3ccc(CN4CCN(C)CC4)cc3C2)c(O)cc1O [ONALESPIB] | 0.29 |
| CSc1cccc(Nc2ncc3cc(-c4c(Cl)cccc4Cl)c(=O)n(C)c3n2)c1 | -0.25 |
| Cc1cc2cc(NS(=O)(=O)c3ccc(C#N)cc3)ccc2n(C)c1=O | 0.71 |
| C[C@@H]1CN(c2ncc(Cl)c(Nc3ccc4c(c3)n(CCC(C)(C)O)c(=O)n4C)n2)C[C@H](C)C1(F)F | 0.91 |
| CC(=O)N[C@@H](Cc1ccc(O)cc1)C(=O)N[C@H](C(=O)N[C@@H](C)C(=O)N[C@H](C=O)CC(=O)O)C(C)C | 0.86 |
| O=C(CCCCCCNC(=O)c1cnc(N(c2ccccc2)c2ccccc2)nc1)NO [RICOLINOSTAT] | 0.23 |
| O=C(NO)c1ccc(CN2CCCc3cc(Cl)ccc32)cc1 | 0.78 |
| COc1cc(C)[nH]c(=O)c1CNC(=O)c1c(C)n([C@H](C)C2CCN(CC(F)(F)F)CC2)c2ccccc12 [CPI-1205] | 0.99 |
| COc1nc(N)nc(Nc2cc(S(N)(=O)=O)ccc2N[C@@H](c2cccc3c2OC(F)(F)O3)c2ncccc2Cl)n1 | 1 |
| Cc1cc(C)cc(Oc2ccc(CNC(=O)[C@H](C)N)cc2C)c1.Cl | 1 |
| CCC[C@H]1CNCc2c1[nH]c(=O)c(C#N)c2N1CCC2(CC1)CC2.Cl | -0.11 |
| Cc1ncccc1-c1cnc(NCc2c(F)ccc3c2CCO3)n2cnnc12 | 0.59 |

---

system: Fibroblast; assay: Incucyte cell viability with human fibroblast; format: toxicity, cell-based; details: 24 h, 10 µM, compound concentration 10 uM, replicate number 2; note: unitless GR value; below 1 slowed growth and below 0 cell loss
Peptide text beside a SMILES is read from it. * marks the point of attachment. Cbz = O=C(OCc1ccccc1)*; CH2F = FC*
reported-property: Growth Rate

| compound | reported-property | reading |
| --- | --- | --- |
| CCCOC(=O)N1CCN(C(=O)c2ccc3c(Cl)cc(-c4ccc(C5(N)CC5)cc4)nc3c2)C[C@H]1C | Growth Rate | -0.86 |
| CNC[C@@H](O)COc1ccc(Cl)c(-c2nc(-c3c(C)noc3C)c(C)c(N3CC4(CCN(C(=O)OC)CC4)C3)n2)c1 | Growth Rate | 1 |
| CC(=O)N[C@@H](Cc1ccc(O)cc1)C(=O)N[C@H](C(=O)N[C@@H](C)C(=O)N[C@H](C=O)CC(=O)O)C(C)C | Growth Rate | 0.09 |
| Nc1c[nH]c(=O)c2cc(-c3ccccc3)sc12 | Growth Rate | -0.86 |
| Nc1ccccc1NC(=O)c1ccc(CNc2nccc(-c3cccnc3)n2)cc1 [MOCETINOSTAT] | Growth Rate | -0.28 |
| O=C(NCC(=O)N1CCCCC1)Nc1ccc2nnsc2c1 | Growth Rate | -0.42 |
| COc1cc2c(NC3CCN(C4CCCCC4)CC3)nc(N3CCCN(C(C)C)CC3)nc2cc1OCCCN1CCCCC1 | Growth Rate | 0.22 |
| O=c1[nH]ccc2cc(F)c(NS(=O)(=O)c3ccc(N4CC[C@@H](O)C4)s3)cc12 | Growth Rate | 0.64 |
| CCOCC1(COCC)CCC(c2n[nH]cc2CN(C)CCNC)CC1.Cl | Growth Rate | 0.32 |
| O=C(CCCCCCNC(=O)c1cnc(N(c2ccccc2)c2ccccc2)nc1)NO [RICOLINOSTAT] | Growth Rate | -0.16 |
| CCCCN(Cc1ccc(C(=O)NO)cc1)C(=O)Nc1ccccc1 [NEXTURASTAT A] | Growth Rate | -0.22 |
| O=C(Nc1c[nH]nc1C(=O)NC1CCNCC1)c1cc(F)cc(F)c1 | Growth Rate | -0.55 |
| CC(C)NCC(O)COC(Cn1c2ccccc2c2ccccc21)Cn1c2ccccc2c2ccccc21 (stereo unspecified) | Growth Rate | 0.03 |
| Cc1cc(-c2ccccc2)cc(C(=O)NNS(=O)(=O)c2ccccc2)c1F | Growth Rate | 0.27 |
| CC(=O)N[C@@H](Cc1ccc(O)cc1)C(=O)N[C@H](C(=O)N[C@@H](C)C(=O)N[C@@H](CC(=O)O)C(=O)COC(=O)c1c(C)cccc1C)C(C)C | Growth Rate | 0.72 |
| CC(=O)N1CCN([C@H]2CCC[C@@H](NC(=O)c3cc4c(F)ccc(C)c4[nH]3)C2)CC1 [EZM-0414] | Growth Rate | 0.56 |
| CCn1c(=O)c(C)cn(Cc2nnc(-c3ccc(F)c(OC)c3F)s2)c1=O | Growth Rate | 1 |
| O=C(NO)c1ccc(CN(c2cnccn2)c2cnccn2)cc1 [KA-2507] | Growth Rate | 0.97 |
| CCCCCCCCCCCCCCCCNNC(=O)c1cccs1 | Growth Rate | 0.19 |
| CCC[C@H]1CNCc2c1[nH]c(=O)c(C#N)c2N1CCC2(CC1)CC2.Cl | Growth Rate | 0.09 |
| COc1ccc(N(C(=O)Oc2c(C)cccc2C)c2ccnc(Nc3ccc(N4CCN(C)CC4)cc3)n2)c(OC)c1 | Growth Rate | 1 |
| O=C(CCl)Nc1ccc(S(=O)(=O)c2ccc(NC(=O)CCl)cc2)cc1 | Growth Rate | -0.63 |
| CC(C)(F)C[C@H](N[C@@H](c1ccc(-c2ccc(S(C)(=O)=O)cc2)cc1)C(F)(F)F)C(=O)NC1(C#N)CC1 [ODANACATIB] | Growth Rate | 1 |
| CC1(C)c2cccc(C(=O)NO)c2CN1c1cnc(C(F)(F)F)cn1 | Growth Rate | -0.04 |
| COc1ccc2nc3[nH]nc(C)c3c(NCCOCCO)c2c1 | Growth Rate | 0.43 |
| CC(C)[C@H](NC(=O)OCc1ccccc1)C(=O)NC(CC(=O)O)C(=O)CF (stereo partly specified) | Growth Rate | 1 |
| CC(C)(O)c1ccc(N2Cc3c(ccnc3-c3ccc(F)cc3OCC(F)(F)F)C2=O)cc1 | Growth Rate | 0.44 |
| O=S(=O)(O)c1ccc2cc(/N=N/c3cc(S(=O)(=O)O)c4cccnc4c3O)ccc2c1 | Growth Rate | -0.42 |
| O=C(NO)c1ccc(CN2CCCc3cc(Cl)ccc32)cc1 | Growth Rate | -0.22 |
| CC(=O)O[C@]1(C(C)=O)CC[C@H]2[C@@H]3C=C(Cl)C4=CC(=O)[C@@H]5C[C@@H]5[C@]4(C)[C@H]3CC[C@@]21C [CYPROTERONE ACETATE] | Growth Rate | 0.15 |
| CCNC(=O)c1noc(-c2cc(C(C)C)c(O)cc2O)c1-c1ccc(CN2CCOCC2)cc1 [LUMINESPIB] | Growth Rate | -0.27 |
| O=C(NCC1CCOCC1)c1n[nH]cc1NC(=O)c1c(F)cccc1F | Growth Rate | 0.3 |
| Cc1ncccc1-c1cnc(NCc2c(F)ccc3c2CCO3)n2cnnc12 | Growth Rate | 0.1 |
| COC(=O)CC[C@H](NC(=O)[C@H](C)NC(=O)OCc1ccccc1)C(=O)N[C@H](C(=O)N[C@@H](CC(=O)OC)C(=O)CF)C(C)C (Cbz-AE(OMe)VD(OMe)-CH2F) | Growth Rate | 1 |
| CC(=O)Nc1ccc(-c2cc(-c3ccccc3)nc3cc(C(=O)NCCCn4ccnc4)nn23)cc1 | Growth Rate | 1 |
| CCn1c(=O)c(C)cn(Cc2nnc(-c3ccc(F)c(O)c3F)s2)c1=O | Growth Rate | 1 |

---

Growth Rate values, listed per item
system: U2OS; assay: Incucyte cell viability with U2OS; assay type: toxicity, cell-based; details: human, 24 h, 10 µM, compound concentration 10 uM, replicate number 1; note: unitless GR value; below 1 slowed growth and below 0 cell loss
Peptide text beside a SMILES is read from it. * marks the point of attachment. Cbz = O=C(OCc1ccccc1)*

| molecule | Growth Rate |
| --- | --- |
| C[C@H](CN[C@@H](C(=O)Nc1ccc(-c2cnn(C)c2)cn1)c1ccccc1)c1ccc(C#N)cc1 | 0.58 |
| O=C(NO)c1cccc(C(=O)NCCc2ccccc2)c1 | 0.02 |
| Cc1ncsc1-c1ccc(CNC(=O)[C@@H]2C[C@@H](O)CN2C(=O)[C@@H](NC(=O)COCCOCCOc2ccc(-c3ccc4ncnc(Nc5ccc(OCc6cccc(F)c6)c(Cl)c5)c4c3)cc2)C(C)(C)C)cc1 | 1 |
| CCNC(=O)c1noc(-c2cc(C(C)C)c(O)cc2O)c1-c1ccc(CN2CCOCC2)cc1 [LUMINESPIB] | -0.21 |
| CC(=O)Nc1ccc(C(=O)Nc2ccc(F)cc2N)cc1 | 1 |
| CC(C)[C@H](NC(=O)OCc1ccccc1)C(=O)NC(CC(=O)O)C(=O)CF (stereo not given in full) | 1 |
| CC(C)(C)c1ccc(CN(C(=O)CN(Cc2c(F)c(F)c(F)c(F)c2F)S(=O)(=O)c2ccc(F)cc2)c2ccc(C(=O)NO)cc2)cc1 | 0.17 |
| CC(C)(CNC(=O)c1cccc(-c2noc(C(F)(F)F)n2)c1)c1coc(-c2ccccc2)n1 | 1 |
| CC#C[C@]1(O)CC[C@H]2[C@@H]3CCC4=CC(=O)CCC4=C3[C@@H](c3ccc(N(C)C)cc3)C[C@@]21C [MIFEPRISTONE] | 0.84 |
| CC(=O)O[C@]1(C(C)=O)CC[C@H]2[C@@H]3C=C(Cl)C4=CC(=O)[C@@H]5C[C@@H]5[C@]4(C)[C@H]3CC[C@@]21C [CYPROTERONE ACETATE] | 1 |
| Cc1ncsc1-c1ccc(CNC(=O)[C@@H]2C[C@@H](O)CN2C(=O)[C@@H](NC(=O)COCC(C)(COCCOCCOCCNC(=O)C[C@@H]2N=C(c3ccc(Cl)cc3)c3c(sc(C)c3C)-n3c(C)nnc32)COCCOCCOCCNC(=O)C[C@@H]2N=C(c3ccc(Cl)cc3)c3c(sc(C)c3C)-n3c(C)nnc32)C(C)(C)C)cc1 | 0.43 |
| Cc1cc(/N=N/c2ccc3c(c2)CCC(=O)N3)c(N)cc1O | 0.36 |
| CN1CCc2c(n(Cc3ccc(C(=O)NO)cc3)c3ccccc23)C1 | 0.34 |
| CN(C)CCCN(CC[C@H](N)C(=O)O)C[C@H]1O[C@@H](n2cnc3c(N)ncnc32)[C@H](O)[C@@H]1O.O=C(O)C(F)(F)F | 1 |
| O=CC1CCCN1C(=O)C1CCCN1C(=O)OCc1ccccc1 (stereo not drawn) (Cbz-Pro-Pro-aldehyde; configuration not given here) | 0.37 |
